Listed here are compounds together with their documented hepatocyte CLint at 1 μM.
- test: Human hepatocyte intrinsic clearance
- Type: in vitro ADME
- recorded.conditions: human, hepatocytes
// note: answer is a bare numeric in µL/min/1e6 cells

Take a look at these entries with their results.
1. [2H]c1nc2cccnc2n1C([2H])([2H])c1cc(OC)c2c(c1)O[C@@H](C)[C@H](c1ccc(OC)nc1)O2 (racemic)
7.45
2. N=C(N)NC(=O)c1cnn(-c2cccc3ncccc23)c1C1CC1 [zoniporide]
13.3
3. COc1ccc(C2Oc3c(OC)cc(Cn4cnc5cccnc54)cc3O[C@H]2C)cn1 (stereo partly shown)
12.7

Attention now shifts to the item below.
Tell me the measured hepatocyte CLint at 1 μM of [2H]c1ccc2nc([2H])n(Cc3cc(OC)c4c(c3)O[C@@H](C)[C@H](c3ccc(OC)nc3)O4)c2n1 (racemic) , please. 6.36
